# System: nude mice, HT29 intrarenal xenograft, tumor weight T/C
# test: NCI In Vivo Anticancer Drug Screen. Data for tumor model HT29;CX-1 Human Adenocarcinoma (MER+) (intrarenal inoculation) in NU/NU Swiss (nude) mice
# run parameters: endpoint: mean tumor weight change; dose: 300.0 mg/kg/injection; schedule: Q04DX004 (sc); vehicle: saline with Tween-80; higher = larger tumour
# Description: The antitumor activity of compounds was measured in mice bearing transplantable tumors. Survival or tumor size were measured and the results are expressed as the measurement made in the treated group (T) divided by the measurement made in the vehicle treated control group (C). The tumor model used in this assay is HT29;CX-1 Human Adenocarcinoma (MER+) (intrarenal inoculation) in NU/NU Swiss (nude) mice
Inconclusive results are not listed.
property: T/C

Observe how each entry below is paired with its result.
Request: May I ask what T/C has been recorded for CC(=S)NC(O)C(=O)c1ccccc1 (stereo not drawn) ?
Result: 116 % of control

Request: May I ask what T/C has been recorded for COC(=Nc1ccccc1)SSC(C)C ?
Result: 118 % of control

---
Request: May I ask what T/C has been recorded for OCC1OC(n2cnc3cc(Cl)c(Cl)cc32)C(O)C1O (stereo not drawn) ?
Result: 111 % of control

Request: May I ask what T/C has been recorded for COC1=C(OC)C(=O)C(SC/C=C(\C)CCCC(C)CCCC(C)CCCC(C)C)=CC1=O (stereo not drawn) ?
Result: 59 % of control

Request: May I ask what T/C has been recorded for COc1ccc(S(=O)(=O)N=N/C=C2\C=CC=CN2O)cc1OC ?
Result: 55 % of control

Request: May I ask what T/C has been recorded for CO[C@@H]1[C@H](O)CC[C@]2(CO2)[C@H]1[C@@]1(C)O[C@@H]1CC=C(C)C ?
Result: 108 % of control

Request: May I ask what T/C has been recorded for CC(=O)N(C)O ?
Result: 71 % of control

Request: May I ask what T/C has been recorded for CCOC(=O)c1[nH]c2cccc3c2c1CC(Br)C3=O (stereo not drawn) ?
Result: 81 % of control

###

Measured T/C, listed per entry for reference.
# System: nude mice, HT29 intrarenal xenograft, tumor weight T/C
# test: NCI In Vivo Anticancer Drug Screen. Data for tumor model HT29;CX-1 Human Adenocarcinoma (MER+) (intrarenal inoculation) in NU/NU Swiss (nude) mice
# run parameters: endpoint: mean tumor weight change; dose: 100.0 mg/kg/injection; schedule: Q04DX004 (sc); vehicle: saline with Tween-80; higher = larger tumour
Inconclusive results are not listed.

Observe how each entry below is paired with its result.
Request: May I ask what T/C has been recorded for C1OCN2CSCC12 (stereo not drawn) ?
Result: 39 % of control

Request: May I ask what T/C has been recorded for O=c1cc(-c2ccccc2)[nH]c2c1CCCC2 ?
Result: 82 % of control

Request: May I ask what T/C has been recorded for COC1=C(OC)C(=O)C(SC/C=C(\C)CCCC(C)CCCC(C)CCCC(C)C)=CC1=O (stereo not drawn) ?
Result: 11 % of control

Request: May I ask what T/C has been recorded for CC(=O)N(C)c1ccc(Nc2cc(C)[nH]c3ccc4ncnc4c23)cc1 ?
Result: 68 % of control

Request: May I ask what T/C has been recorded for OC1(CSc2ccccc2)CCCCC1 ?
Result: 113 % of control

Request: May I ask what T/C has been recorded for O=C(O[Si](Cc1ccccc1)(Cc1ccccc1)Cc1ccccc1)N(CCCl)CCCl ?
Result: 119 % of control

Request: May I ask what T/C has been recorded for O=C1N=C(Oc2ccccc2)SC1=O ?
Result: 76 % of control

Moving on to another molecule below.
Request: May I ask what T/C has been recorded for CC1(c2ccc(Cl)cc2)OC(=O)C(=Cc2ccc([N+](=O)[O-])s2)C(=O)O1 (stereo not drawn) ?
Result: 53 % of control
